Catalogue of normalized growth values
assay: chemical genetic growth profiling, strain panel (AID 1159580);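 also: tested at 20 µM; growth read once vehicle control cultures reached saturation at 30 °C; 1 = growth at the plate median or of vehicle wells; lower values mean less growth of the strain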; details: S. cerevisiae deletion strains, growth OD, locus YML032C, strain rad52, active compounds read low
The whole screen tested about 5,500 compounds, of which about 2,000 (36%) were called active. Roughly 18% stayed inconclusive and do not appear here. This is one part of the list.
RECORDED ENDPOINT: normalized growth

MOLECULE	EXPERIMENTAL VALUE
CCCC(CCC)C(=O)O	0.98
NS(=O)(=O)c1cc2c(cc1Cl)NC(C1CC3C=CC1C3)NS2(=O)=O (stereo not given)	1.02
CO[C@]12C[C@@H](COC(=O)c3cncc(Br)c3)CN(C)[C@@H]1Cc1cn(C)c3cccc2c13	1.01
O=c1cc(-c2cc(O)c(O)c(O)c2)oc2cc(O)cc(O)c12	0.999
COc1c2ccoc2nc2c(OC)c(OCC(O)C(C)(C)O)ccc12 (stereo not given)	0.974
Nc1cc(-c2ccncc2)c[nH]c1=O	0.986
COC(=O)c1c(C)cc(OC(=O)c2c(C)c(Cl)c(O)c(C=O)c2O)c(C)c1O	0.981
NC(N)=NCCC[C@@H](NC(=O)[C@@H](N)Cc1ccc(O)cc1)C(=O)O	1.02
NCC(CC(=O)O)c1ccc(Cl)cc1 (stereo not given)	0.987
N[C@@H](Cc1cc(I)c(Oc2ccc(O)c(I)c2)c(I)c1)C(=O)O	0.981
C=C1C2CCC3(C)C(c4ccoc4)OC(=O)CC13OC1CC(OC(C)=O)C(C)(C)C(CC(=O)OC)C12C (stereo not given)	0.999
CNC(=O)Oc1ccc2c(c1)[C@]1(C)CCN(C)[C@@H]1N2C	1.01
COC(=O)CCCOc1ccc(Cl)cc1Cl	1.01
COc1cc(OC)c2c3c1C(=O)c1c(OC)cc(C)c4c(OC)cc(c-3c14)C(C)(C)C2=O	0.973
CC(=O)O[C@H]1CC[C@]2(C)C3=CC(=O)[C@@]4(C)C(C[C@@H]5OC6(OCC(C)CC6Br)[C@@H](C)[C@@H]54)C3CC[C@H]2C1 (stereo not given in full)	0.995
C=C1[C@H]2CC[C@@]3(C)[C@H](c4ccoc4)OC(=O)C[C@]13O[C@H]1C[C@H](O)C(C)(C)[C@H](CC(=O)OC)[C@]12C	1.01
NC(N)=O	1
COc1cc2c(cc1-c1cc3cc4ccoc4cc3oc1=O)OCO2	0.983
CC(=O)OCC(=O)[C@@]1(O)[C@H](OC(C)=O)CC2C3CCC4=CC(=O)C=C[C@]4(C)[C@@]3(F)[C@@H](O)C[C@@]21C (stereo not given in full)	1.01
CC1=C2[C@H]3OC(=O)[C@@H](C)[C@@H]3CC[C@@]2(C)C=CC1=O	1.02
O=c1cc(-c2ccccc2)oc2c(O)c(O)ccc12	1.01
COc1cc(C)c(C(=O)Oc2cc(C)c(C(=O)O)c(O)c2C)c(OC)c1C	0.985
N[C@H](Cc1ccccc1)C(=O)O	0.986
COc1c(Cl)ccc(Cl)c1C(=O)O	1.02
CN(C)N=Nc1nc[nH]c1C(N)=O	0.993
CN(C)CCOC(=O)C(c1ccccc1)C1(O)CCCC1 (stereo not given)	1
CN1CCN(C2=Nc3ccccc3Oc3ccc(Cl)cc32)CC1	0.989
Cc1cc(=O)oc2c(O)c(O)ccc12	0.997
NC(N)=NCCCC(NC(=O)C(N)Cc1ccc(O)cc1)C(=O)O (stereo not given)	0.996
COc1cc2c(cc1/C=C/C(=O)c1cc(OC)c(OC)cc1OC)OCO2	1.02
CC(=O)O[C@H]1C[C@@H](OC(C)=O)C(C)(C)C2CC(=O)[C@]3(C)C(CC[C@@]4(C)[C@H](c5ccoc5)OC(=O)[C@H]5O[C@]543)[C@]21C (stereo not given in full)	1.01
COc1ccc(C(=O)N2CCCC2=O)cc1	1
COc1cc(S(C)=O)ccc1-c1nc2ncccc2[nH]1 (stereo not given)	0.989
Clc1ccc2c(c1)C(N1CCNCC1)=Nc1ccccc1O2	1.01
CCN(CC)CCOC(=O)C(c1ccccc1)c1ccccc1	1
